TGI: recorded values
- Test system: HOP-92 NSCLC
- assay_info: NCI tumour cell line growth inhibition, 48 h

Here's what some known entries look like.
CC(=O)Oc1ccc(C23c4ccccc4C2(OC(C)=O)c2cc(OC(C)=O)ccc23)cc1 (stereo unspecified)
20.3 µM
NC(N)=NC(N)=Nc1ccc(S(=O)(=O)O)cc1
> 100 µM
Cc1ncc(C(=O)Nc2ccc(CN3CCN(C)CC3)c(C(F)(F)F)c2)cc1C#Cc1cnc2cccnn12
2.87 µM

Exercise: Entry under review: NC(=S)/N=C(/c1nc2ccc(Cl)cc2[nH]c1=O)C(O)c1ccccc1Cl (stereo unspecified) . Reported TGI?
Key: > 100 µM

Exercise: Do the same for Cn1c(-c2c(N)n(Nc3cccc(Cl)c3)c3nc(C#N)c(C#N)nc23)nc2ccccc21 please
Key: > 50 µM

Exercise: Do the same for CCNc1cc(-c2cccc(OC(F)(F)F)c2)nc2ccc(N3CCCC3)cc12 please
Key: 3.24 µM

Exercise: Do the same for COc1cc2nc(SCc3cc(OC)c(OC)c(OC)c3)n(Cc3ccccc3)c(=O)c2cc1OC please
Key: 8.97 µM

Exercise: Do the same for CN(C(=O)Cc1ccccc1)n1cnn(CC(=O)OC(C)(C)C)c1=S please
Key: > 10 µM

Exercise: Do the same for NC(=O)N/N=C(/CC1C(=O)Oc2ccccc21)c1ccccc1O (stereo unspecified) please
Key: > 100 µM

Exercise: Do the same for COC(=O)/C=C(C)/C=C/C1OC(C)OCC1O (stereo unspecified) please
Key: > 100 µM

----------
TGI: recorded values
- Tested on: HCT-116 colon
- assay_info: NCI tumour cell line growth inhibition, 48 h

Here's what some known entries look like.
O=C1/C(=C/c2cccc(Br)c2)COc2ccc(O)cc21
2.99 µM
CCP(=O)(CC)C(Cl)Cl
> 100 µM
CCOC(=O)Nc1nc2ccc(OC)cc2s1
> 100 µM

Exercise: Can you look up TGI on HCT-116 colon for Clc1ccc(C2=NN=C3C(c4ccccc4)=Nc4ccccc4N3C2)cc1 ?
Key: > 100 µM

Exercise: Do the same for CC[C@H](Nc1ncnc2nc[nH]c12)c1nc2cccc(F)c2c(=O)n1-c1ccccc1 please
Key: > 100 µM

----------
- Test system: A498 renal
- assay_info: NCI tumour cell line growth inhibition, 48 h
measure: GI50

Exercise: Entry under review: CCC(O)c1ccc(Br)cc1NC(=O)c1cccc(Cl)c1 (centres undefined) . Reported GI50?
Key: 16.3 µM

Exercise: Do the same for Cc1nc(N)nc2c1CCC(O)S2 (centres undefined) please
Key: 17.7 µM

----------
- Test system: SNB-19 CNS
- assay_info: NCI tumour cell line growth inhibition, 48 h
measure: TGI (µM)
Return type: number; implicit unit µM.

CO/N=C(/C)c1cccc(Nc2nc3ccccc3c3[nH]c4ccccc4c23)c1
26.7

Okay, next one:
Exercise: Entry under review: COC(=O)c1cc2c3ccccc3n3c(=O)c4cc5ccc(N(S(=O)(=O)c6ccc(C)cc6)S(=O)(=O)c6ccc(C)cc6)cc5nc4c(n1)c23 . Reported TGI?
Key: 78.3

----------
- Tested on: U251 CNS
Hi there, use one of these labels in your reply, thanks! Y = active, N = inactive

Answered cases to consult:
FC(F)(c1ccc2ncccc2c1)c1nnc2ccc(-c3ccncc3)nn12
N
CN(CCCCCl)P(=O)(OCCS(=O)(=O)CC(NC(=O)CCC(N)C(=O)O)C(=O)NC(C(=O)O)c1ccccc1)OCC1OC(n2ccc(N)nc2=O)C(F)(F)C1O (centres undefined)
Y
CC(=O)Oc1ccc(C23c4ccccc4C2(OC(C)=O)c2cc(OC(C)=O)ccc23)cc1 (centres undefined)
N

Here is the next item to consider.
Exercise: Fill in: this test's call for CCOC(=O)Nc1nc2ccc(OC)cc2s1 is ___
Key: N

----------
- Tested on: TK-10 renal
- assay_info: NCI tumour cell line growth inhibition, 48 h; in the data active = GI50 below about 0.43 µM; inactive = the rest
Hi there, use one of these labels in your reply, thanks! 1 (yes) (active), 0 (no) (inactive)

Cn1c(C(=O)c2ccncc2)cc2ccccc21
0 (no)
COc1cc(OC)c(C(=O)/C=C/c2cc3c(cc2OCc2ccccc2)OC(C)(C)CC3)cc1CC=C(C)C
0 (no)
O=[N+]([O-])c1cc(Cl)c2[nH]c3c(Cl)cc([N+](=O)[O-])cc3c2c1
1 (yes)
CS(=O)(=O)CCNCc1cc(-c2cc3c(Nc4ccc(OCc5cccc(F)c5)c(Cl)c4)ncnc3s2)cs1
0 (no)

Exercise: Fill in: this test's call for CCC[CH2][Sn]([Cl])([Cl])[CH2]CCC is ___
Key: 0 (no)

Exercise: Do the same for FC(F)(c1ccc2ncccc2c1)c1nnc2ccc(-c3ccncc3)nn12 please
Key: 0 (no)

Exercise: Do the same for O=C(Nc1cc(C(F)(F)F)ccc1Cl)c1ccc(NC2=C(Cl)C(=O)N(Cc3ccccc3)C2=O)cc1 please
Key: 0 (no)

Exercise: Do the same for Cn1c(-c2c(N)n(Nc3cccc(Cl)c3)c3nc(C#N)c(C#N)nc23)nc2ccccc21 please
Key: 0 (no)

Exercise: Do the same for CCOC(=O)C(Cc1c[nH]c2c(N(CCO)CCO)cccc12)(NC(C)=O)C(=O)OCC please
Key: 0 (no)

Exercise: Do the same for O=c1c2cc(F)ccc2sc2c(N3CCNCC3)nc3ccc(F)cc3c12 please
Key: 0 (no)

Exercise: Do the same for S=c1snc2n1CCN2 please
Key: 0 (no)

----------
- Tested on: COLO 205 colon
- assay_info: NCI tumour cell line growth inhibition, 48 h
TGI: recorded values

NCCSSCCN
> 100 µM

Exercise: Entry under review: CCOC(=O)c1[nH]c(Br)c(-c2ccc(OC)c(OC)c2)c1Br . Reported TGI?
Key: 1.07 µM

Exercise: Do the same for COC/C=C\COC please
Key: > 100 µM

Exercise: Do the same for O=C1c2ccccc2-[n+]2ccc3c([nH]c4ccccc43)c21 please
Key: 0.498 µM

Exercise: Do the same for O=C1CC2CC3OC3[C@H]3c4cc5c(cc4C(=O)N1C23)OCO5 (some centres not stated) please
Key: > 100 µM

Exercise: Do the same for CCP(=O)(CC)C(Cl)Cl please
Key: > 100 µM

Exercise: Do the same for O=C(/C=C/c1ccc(-c2ccccc2)cc1)NCc1ccc(C(=O)NCc2ccccc2)cc1 please
Key: > 100 µM

----------
TGI: recorded values
- Test system: NCI-H522 lung
- assay_info: NCI tumour cell line growth inhibition, 48 h
Return type: number; implicit unit µM.

COc1ccc(NC(=O)CSC2=C(Nc3cccc(Br)c3)C(=O)N(Cc3ccccc3)C2=O)cc1Cl
82.2

Exercise: Entry under review: O=C(O)c1ccc(CI)cc1 . Reported TGI?
Key: 11.8

Exercise: Do the same for COc1ccc(-c2cs/c(=N\N=C\c3ccc(O)cc3O)n2/N=C/c2ccc(O)cc2O)cc1 please
Key: 4.68

Exercise: Do the same for N/N=C1\C(=O)N(C2CCCCCC2)C(=O)C1C(=O)NC1CCCCCC1 (stereo not drawn) please
Key: 60

Exercise: Do the same for CC(C)(C)OC(=O)N(CCCCNC(=O)OCc1ccccc1)CCCNC(=O)OCc1ccccc1 please
Key: 19.4

Exercise: Do the same for Cc1ncc(C(=O)Nc2ccc(CN3CCN(C)CC3)c(C(F)(F)F)c2)cc1C#Cc1cnc2cccnn12 please
Key: 2.4

Exercise: Do the same for CC(C)c1c(-c2ccccc2)nc2c(C#N)c[nH]n2c1=O please
Key: 80

Exercise: Do the same for COc1ccc(NC(=O)CC2SC(=Nc3ccccc3C)NC2=O)c([N+](=O)[O-])c1 (stereo not drawn) please
Key: 80.5

----------
TGI: recorded values
- Test system: SR leukemia
- assay_info: NCI tumour cell line growth inhibition, 48 h

Cc1cnc2sn(-c3ccc([N+](=O)[O-])cc3)c(=O)c2c1
> 100 µM
COc1cc(F)c(F)c(Nc2ccc(I)cc2F)c1NS(=O)(=O)C1(C[C@H](O)CO)CC1
> 10 µM
O=S(=O)(Nc1nc2ccccc2nc1Nc1ccc2ccccc2c1)c1ccccc1
> 87.4 µM
COc1ccc(NC(=O)CC2SC(=Nc3ccccc3C)NC2=O)c([N+](=O)[O-])c1 (stereo unspecified)
> 100 µM
COc1ccc(-c2cs/c(=N\N=C\c3ccc(O)cc3O)n2/N=C/c2ccc(O)cc2O)cc1
> 100 µM

Exercise: Entry under review: NCCSSCCN . Reported TGI?
Key: > 100 µM

Exercise: Do the same for Nc1nonc1-c1nc2cnccc2n1C1CC1 please
Key: 15 µM

Exercise: Do the same for C=CCC1CC(n2cc(C)c(=O)[nH]c2=O)OC1CO[Si](C)(C)C(C)(C)C (stereo unspecified) please
Key: 11.5 µM

----------
- Tested on: UACC-257 melanoma
- assay_info: NCI tumour cell line growth inhibition, 48 h
GI50: recorded values

S=c1snc2n1CCN2
> 100000 nM
COc1ccc(-c2ccncc2)cc1C(N)=O
> 25000 nM
O=c1c2cc(F)ccc2sc2c(N3CCNCC3)nc3ccc(F)cc3c12
1880 nM
COc1cccc(/C(C#N)=C/c2nc3c(N4CCOCC4)nc(Cl)nc3n2C)c1
1410 nM
O=S(=O)(NCCNc1nccc(-c2c(-c3ccc(F)c(O)c3)nc3sccn23)n1)c1ccc(F)cc1
1710 nM
CCC[CH2][Sn]([Cl])([Cl])[CH2]CCC
854 nM
CCOC(=O)c1[nH]c(Br)c(-c2ccc(OC)c(OC)c2)c1Br
10000 nM

Okay, next one:
Exercise: Can you look up GI50 on UACC-257 melanoma for CN(Cc1cnc2nc(N)nc(N)c2n1)c1ccc(C(=O)N[C@@H](CCC(=O)O)C(=O)O)cc1 ?
Key: 1890 nM
